MEASUREMENT DESCRIPTION: Solubility of butixocort propionate in propellants and propellant/ethanol blends
Format: physicochemical
ASSAY SETUP: propellant 227, 10% ethanol, organic solvent or mixture, Propellant 227, 10 weight % ethanol, 20°C; Table 2

COMPOUND: CCCC(=O)O[C@]1(C(=O)CSC(=O)CC)CC[C@H]2[C@@H]3CCC4=CC(=O)CC[C@]4(C)[C@H]3[C@@H](O)C[C@@]21C [Butixocort propionate]
UNITS OF MEASURE: µg/mL
solubility at 168 h: 8520

----------
MEASUREMENT DESCRIPTION: Solubility of butixocort propionate in propellants and propellant/ethanol blends
Format: physicochemical
ASSAY SETUP: propellant 227, 0% ethanol, organic solvent or mixture, Propellant 227, 0 weight % ethanol, 20°C; Table 2; average of three determinations

COMPOUND: CCCC(=O)O[C@]1(C(=O)CSC(=O)CC)CC[C@H]2[C@@H]3CCC4=CC(=O)CC[C@]4(C)[C@H]3[C@@H](O)C[C@@]21C [Butixocort propionate]
UNITS OF MEASURE: µg/mL
solubility at 168 h: 395

Measured values drawn from patent US5653961A for this set.
